Procedure summary: Inhibition of HCV genotype 1b NS5B RNA dependent RNA polymerase
Parameters: species or system Hepatitis C virus subtype 1b
Readout: IC50

Qu. Item under review: O=c1ccn([C@@H]2O[C@H](COP(=O)(O)OP(=O)(O)OP(=O)(O)O)[C@@H](O)C2(F)F)c(=O)[nH]1 . Reported IC50?
Ans. > 100 µM

---

Recorded half-life at 2 µM for the following compounds
Procedure summary: Stability in human whole blood assessed as half life at 2 uM by LC-MS/MS method
Assay type: ADME
// units = min; emit number, no label

Compound: CC[C@H](C)OC(=O)[C@H](C)NP(=O)(OC[C@H]1O[C@@H](n2ccc(=O)[nH]c2=O)C(Cl)(Cl)[C@@H]1O)Oc1ccccc1 (single isomer, unassigned)
half-life at 2 µM, min: 11
--
Compound: C[C@H](NP(=O)(OC[C@H]1O[C@@H](n2ccc(=O)[nH]c2=O)C(Cl)(Cl)[C@@H]1O)Oc1ccccc1)C(=O)OC1CCCCC1 (single isomer, unassigned)
half-life at 2 µM, min: 20
--
Compound: CC(C)OC(=O)[C@H](C)NP(=O)(OC[C@H]1O[C@@H](n2ccc(=O)[nH]c2=O)C(Cl)(Cl)[C@@H]1O)Oc1cccc(C2(C)CC2)c1 (single isomer, unassigned)
half-life at 2 µM, min: 12
--
Compound: CC[C@@H](C)OC(=O)[C@H](C)NP(=O)(OC[C@H]1O[C@@H](n2ccc(=O)[nH]c2=O)C(Cl)(Cl)[C@@H]1O)Oc1ccccc1 (single isomer, unassigned)
half-life at 2 µM, min: 11
--
Compound: CC(C)OC(=O)[C@H](C)NP(=O)(OC[C@H]1O[C@@H](n2ccc(=O)[nH]c2=O)C(Cl)(Cl)[C@@H]1O)Oc1ccc(C2(C)CC2)cc1 (single isomer, unassigned)
half-life at 2 µM, min: 8

Qu. Item under review: CC(C)OC(=O)[C@H](C)NP(=O)(OC[C@H]1O[C@@H](n2ccc(=O)[nH]c2=O)C(Cl)(Cl)[C@@H]1O)Oc1cccc(C2CCC2)c1 (single isomer, unassigned) . Reported half-life at 2 µM?
Ans. 8

Qu. Item under review: CC(C)OC(=O)[C@H](C)N[P@@](=O)(OC[C@H]1O[C@@H](n2ccc(=O)[nH]c2=O)C(Cl)(Cl)[C@@H]1O)Oc1ccccc1 . Reported half-life at 2 µM?
Ans. 27

---

Recorded EC50 for the following compounds
System: Hepatitis C virus
Procedure summary: Antiviral activity against HCV genotype 1b subgenomic replicon infected in human HuH7 Luc-neo cells assessed as inhibition of viral replication by luciferase reporter gene assay
Format: functional, cell-based, Hepacivirus hominis
Particulars: Huh-7
// units = nM; emit number, no label

Reference set, count: 2
Compound: CC[C@@H](C)OC(=O)[C@H](C)NP(=O)(OC[C@H]1O[C@@H](n2ccc(=O)[nH]c2=O)C(Cl)(Cl)[C@@H]1O)Oc1ccccc1 (single isomer, unassigned)
Readout: EC50
Reported: 110
--
Compound: CC[C@H](C)OC(=O)[C@H](C)NP(=O)(OC[C@H]1O[C@@H](n2ccc(=O)[nH]c2=O)C(Cl)(Cl)[C@@H]1O)Oc1ccccc1 (single isomer, unassigned)
Readout: EC50
Reported: 83

Then this compound:
Qu. Item under review: C[C@H](NP(=O)(OC[C@H]1O[C@@H](n2ccc(=O)[nH]c2=O)C(Cl)(Cl)[C@@H]1O)Oc1ccccc1)C(=O)OC1CCCCC1 (single isomer, unassigned) . Reported EC50?
Ans. 160
